Purity Day 12 under high humidity overview
EXPERIMENTAL DETAILS: Stability study (influencing factors, HPLC purity)
Assay type: physicochemical
TEST PARAMETERS: HPLC, RH80%, 12 days
// units = %; emit number, no label

Some compounds with known Purity Day 12 under high humidity results, for comparison:
CC(C)(C(=O)O)c1ccc(C(=O)CCCN2CCC(OC(c3ccccc3)c3ccccc3)CC2)cc1 [Comparative Example 2′, carebastine] : 99.25
CC(C)(C(=O)O)c1ccc(C(=O)CCCN2CCC(OC(c3ccccc3)c3ccccc3)CC2)cc1.Cc1ccc(S(=O)(=O)O)cc1 [Example 5, carebastine p-toluenesulfonate] : 97.89
CC(C)(C(=O)O)c1ccc(C(=O)CCCN2CCC(OC(c3ccccc3)c3ccccc3)CC2)cc1 [Comparative Example 2] : 97.41

Next, consider the following compound.
Reported Purity Day 12 under high humidity ( CC(C)(C(=O)[O-])c1ccc(C(=O)CCCN2CCC(OC(c3ccccc3)c3ccccc3)CC2)cc1.[K+] [Example 1] ) = 98.38
